Reference source: PubChem BioAssay (NCI)

# System: LOX IMVI melanoma
# assayExplanation: NCI-60 one-dose screen, 48 h (100 = growth as untreated, 0 = no growth, -100 = all killed)
# conditionDescription: 10 µM unless noted
This is part of a sample that, as a whole, favours compounds with a hit. Of some 83,000 tested, about 20% had one in any assay.
Binning scheme for growth: 0 (below 30%), 1 (30% to below 80%), 2 (80% or more)

Category lookup for the compound CCCCN1CCN(c2ccc3nc(-c4ccc5nc(-c6cc(OC)c(OC)c(OC)c6)[nH]c5c4)[nH]c3c2)CC1
1

Category lookup for the compound CN1CCN(c2ccc3nc(/N=C/c4ccc5sc(-c6ccc([N+](=O)[O-])cc6)nc5c4)sc3c2)CC1
2

Category lookup for the compound CC(C)n1nc(C#Cc2cccc3cc(-c4cccc(C(F)(F)F)c4)ncc23)c2c(N)ncnc21
1

Category lookup for the compound COc1ccc(-c2nc3sc4c(c3c(=O)[nH]2)CCCC4)c2ccccc12
0

Category lookup for the compound CC(C)OC(=O)NNC(=O)c1ccncc1
2

Category lookup for the compound CN(CCC(=O)/C(=C\c1ccccc1)c1ccc(Cl)cc1)Cc1ccccc1
0

Category lookup for the compound Clc1ccc2[nH]c3c(NCCCN4CCOCC4)ncnc3c2c1
1

Category lookup for the compound O=C1/C(=C/c2ccc([N+](=O)[O-])cc2)COc2ccc(O)c(O)c21
0

Category lookup for the compound Cl.[Pt].[c-]1ccccc1-c1ccccn1.c1ccc(P(c2ccccc2)C([PH+](c2ccccc2)c2ccccc2)[PH+](c2ccccc2)c2ccccc2)cc1
0

Category lookup for the compound Oc1[nH]c2ccccc2c1/C=c1/cc2c(c(-c3ccc(F)cc3)n1)=Nc1ccccc1-2
0

Category lookup for the compound Nc1c(-c2nc3ccccc3c(=O)[nH]2)nnn1-c1ccc(Cl)cc1
2

Category lookup for the compound COc1ccc(-c2cc(-c3ccc(Nc4nc(Nc5ccccc5)nc(Nc5ccc(Cl)cc5)n4)cc3)nc(N)n2)cc1
1

Category lookup for the compound CCNCCNc1cc(-c2ccc(F)cc2)c(C#N)c2nc3ccccc3n12
0

Category lookup for the compound COc1ccc(-c2nc3ccccn3c2/C=C/C(=O)c2cc(OC)c(OC)c(OC)c2)cc1
1

Category lookup for the compound Cc1ccc(S(=O)(=O)NN/C(N)=N\S(=O)(=O)c2cc(C)c(Cl)cc2SCc2ccccc2)cc1
2

Category lookup for the compound C[C@@H]1CC[C@@H]2[C@@H]1[C@H](OC(=O)/C=C/c1ccccc1)[C@]1(CCCOCCOCCOCCOC(=O)CCCC[C@@H]3SC[C@@H]4NC(=O)N[C@@H]43)C[C@@H](OC(=O)CO)[C@@]2(C)O1
2
